tested on: MDA-MB-231 cells; test: Apoptosis assay, flow cytometry with Annexin V-FITC and PI staining; assay type: cell-based; settings: 50 μM, 24 h, Annexin V-positive/PI-positive cells
Measured Percentage necrosis values are reported for all entries that follow.
Dear colleague, please return just the value in %, with no unit written.

Guide cases for Percentage necrosis, answers given:
Read the entry Cc1ccc(-n2ncc(C(=O)Nc3ccccc3OCc3ccccc3)c2C2CCNCC2)cc1C [1f] and write its reported Percentage necrosis.
21

Please report the measured Percentage necrosis for CCOc1ccccc1NC(=O)C1CC(=O)N(c2ccc(OC)cc2)C1c1ccc(OC)cc1 (stereo not shown) [compound 3]
7

Quote Percentage necrosis reported for CCCc1ccc(NC(=O)c2cnn(-c3ccc(C)c(C)c3)c2C2CCNCC2)cc1 [1i] please.
12

# ---- query compound ----
Item COc1ccc(N2C(=O)CCC(C(=O)Nc3ccc(OC)cc3OC)C2c2ccc(F)cc2)cc1 (stereo not shown) [compound 4] : provide Percentage necrosis
5

Attribution: paper PMC4058332
